Consider compounds characterized by their pKi with bovine α-thrombin (Bos taurus).
pKi: −log10 of the molar value. Square brackets hold non-standard residues; d marks the D form. Peptide text beside a SMILES is read from it.
property.name: pKi

{"columns": ["compound", "experimental.system", "pKi"],
 "data": [
  ["N=C(N)NCCC[C@@H](NC(=O)[C@@H]1CCCN1C(=O)[C@H](N)Cc1ccccc1)C(=O)N1CCC[C@@H]1C(N)=O [Peptide 10, D-Phe-Pro-D-Arg-D-Pro] (H-[dF]P[dR][dP]-NH2)", "bovine α-thrombin (Bos taurus)", 3.31]
]}

1: CSCC[C@H](NC(=O)[C@@H](CCCNC(=N)N)NC(=O)[C@@H]1CCCN1C(=O)[C@H](N)Cc1ccccc1)C(N)=O [Peptide 28, D-Phe-Pro-D-Arg-Met] (H-[dF]P[dR]M-NH2)
2: C[C@H](O)[C@@H](NC(=O)[C@@H](CCCNC(=N)N)NC(=O)[C@@H]1CCCN1C(=O)[C@H](N)Cc1ccccc1)C(N)=O [Peptide 16, D-Phe-Pro-D-Arg-D-Thr] (H-[dF]P[dR][dT]-NH2)
Prompt: Kindly compare 1 with 2 and tell me which has the lower pKi figure. Record your answer as the label of the chosen record.
Completion: 1
(1: 4.43, 2: 6.04)
